Target: UniProt Q9WTL7
Assay: inhibitor selectivity across mouse and human LYPLA2, LYPLA1 – cell lysate, gel-based ABPP, FP-Rh fluorescence, mouse brain membrane proteome, selectivity assay for LYPLA2 selective inhibitor project, late-stage follow-up (AID 652030)
Details: emLYPLA2, at 10 µM, active compounds read high
Where inhibition equals or exceeds 9%, the correct label is Fulfilled; where it does not, the label is Not fulfilled.

QUERY SMILES	ASSIGNED LABEL
COc1ccccc1-n1cc(C(=O)NCC(=O)N2CCN(Cc3ccccc3)CC2)c2ccccc2c1=O	Fulfilled
O=C(Cc1ccc([N+](=O)[O-])cc1)N1CCN(c2ccc([N+](=O)[O-])cc2)CC1	Not fulfilled
COc1ccc(-n2nc(C(=O)NCC(=O)N3CCN(Cc4ccccc4)CC3)c3ccccc3c2=O)c(OC)c1	Fulfilled
O=C(O)c1ccc(CN2C(=O)c3ccc(Oc4ccc([N+](=O)[O-])cc4)cc3C2=O)cc1	Not fulfilled
Cc1ccc(NC(=O)Cn2c([N+](=O)[O-])cnc2C)cc1Cl	Not fulfilled
COc1ccc2c(c1)C(=O)[C@@H](O)[C@H](c1ccc(OC)c(Br)c1)O2	Fulfilled
CS(=O)(=O)Nc1ccc(N2CCN(c3ccc(C(F)(F)F)cn3)CC2)nc1	Not fulfilled
COc1ccc(-n2nc(C(=O)NCC(=O)N3CCN(c4cccc(Cl)c4)CC3)c3ccccc3c2=O)c(OC)c1	Fulfilled
O=C(COc1ccc(Cl)cc1Cl)N1CCN(C/C=C/c2ccccc2)CC1	Not fulfilled

###

Target: Acyl-protein thioesterase 1 (Mus musculus)
Test: inhibitor selectivity across mouse and human LYPLA2, LYPLA1 – cell lysate, gel-based ABPP, FP-Rh fluorescence, mouse brain membrane proteome, selectivity assay for LYPLA2 selective inhibitor project, late-stage follow-up (AID 652030)
Details: emLYPLA1, at 10 µM, active compounds read high

QUERY SMILES	inhibition, %
O=C(Nc1ccc(N2CCN(C(=O)c3ccco3)CC2)c(Cl)c1)c1c(F)c(F)c(F)c(F)c1F	18
COc1ccc(-n2nc(C(=O)NCC(=O)N3CCN(Cc4ccc5c(c4)OCO5)CC3)c3ccccc3c2=O)cc1OC	0
CC(CCC(C)C)=NNC(=S)Nc1cc(S(=O)(=O)N2CCOCC2)ccc1N1CCOCC1	19
O=C(O)c1cccc(N2C(=O)c3ccc(Oc4ccc(Cl)cc4)cc3C2=O)c1	25

###

Biological target: UniProtKB O95372
Experiment: inhibitor selectivity across mouse and human LYPLA2, LYPLA1 – cell lysate, gel-based ABPP, FP-Rh fluorescence, mouse brain membrane proteome, selectivity assay for LYPLA2 selective inhibitor project, late-stage follow-up (AID 652030)
Conditions: rhLYPLA2, at 10 µM, active compounds read high
Reported inhibition by item:

COMPOUND	inhibition, %
CC(=O)c1ccc(N2CCN(C(=O)C3CCN(S(=O)(=O)c4ccc5c(c4)CC(C)N5C(C)=O)CC3)CC2)cc1 (centres undefined)	8
COc1ccc(N2CCN(C(=O)C3CCC(Cn4c(=S)[nH]c5ccccc5c4=O)CC3)CC2)cc1 (centres undefined)	47
O=[N+]([O-])c1ccc(Oc2cccc(Br)c2)c2ccncc12	2
Cc1cccc(N2CCN(C(=O)Cc3ccc(-n4c(=O)[nH]c5ccsc5c4=O)cc3)CC2)c1C	4
Cc1ccc(N/C=C(\C#N)c2ccc(OCCCF)cc2)cc1	5
COc1ccc(N2CCN(C(=O)c3cc4c(s3)-c3ccccc3S(=O)(=O)C4)CC2)cc1	79
CC(=O)c1ccc(N2CCN(C(=O)C3CCN(S(=O)(=O)c4ccc5c(c4)CC(C)N5C(=O)C4CC4)CC3)CC2)cc1 (centres undefined)	10
COc1ccc(OC)c(-c2cc(C(=O)Nc3c(C)nn(Cc4ccccc4)c3C)no2)c1	3
COc1ccccc1-c1nnc(C2CCN(S(=O)(=O)c3ccc([N+](=O)[O-])cc3)CC2)o1	9
CCCCCCCCCC(=O)Nn1cnc2ccccc2c1=O	4
O=C(O)c1ccc(CN2C(=O)c3ccc(Oc4ccc([N+](=O)[O-])cc4)cc3C2=O)cc1	7
CCN(CC)S(=O)(=O)c1ccc(N2CCOCC2)c(NC(=O)COc2ccc(C#N)cc2)c1	3
COc1cc(/C=C2\SC(=O)N(CC(=O)Nc3cccc(C)c3)C2=O)ccc1OC(C)C(=O)O (centres undefined)	58
Cc1nc([N+](=O)[O-])cn1CC(=O)Nc1ccc(F)c(Cl)c1	10
COc1cc(C2Oc3cc(C4Oc5cc(O)cc(O)c5C(=O)C4O)ccc3OC2CO)ccc1O (centres undefined)	14
Cc1cccc(NC(=O)CN2C(=O)S/C(=C\c3cc(C)n(C)c3C)C2=O)c1	51
COc1ccccc1-n1cc(C(=O)NCC(=O)N2CCN(Cc3ccccc3)CC2)c2ccccc2c1=O	14
Cc1ccccc1NC(=O)CN1C(=O)S/C(=C\c2cccn2-c2cccc(C(=O)O)c2)C1=O	4
O=C1Nc2ccc([N+](=O)[O-])cc2OC1CCN1CCN(Cc2ccc3c(c2)OCO3)CC1 (centres undefined)	9

###

Some compounds, each annotated with its measured inhibition.
Target: Acyl-protein thioesterase 1 (Mus musculus)
Experiment: inhibitor selectivity across mouse and human LYPLA2, LYPLA1 – cell lysate, gel-based ABPP, FP-Rh fluorescence, mouse brain membrane proteome, selectivity assay for LYPLA2 selective inhibitor project, late-stage follow-up (AID 652030)
Conditions: emLYPLA1, at 10 µM, active compounds read high

COMPOUND	inhibition [%]
COc1ccc(-n2nc(C(=O)NCC(=O)N3CCN(c4cccc(Cl)c4)CC3)c3ccccc3c2=O)c(OC)c1	33
CC(=O)c1ccc(N2CCN(C(=O)C3CCN(S(=O)(=O)c4ccc5c(c4)CC(C)N5C(C)=O)CC3)CC2)cc1 (stereo not given)	18
COc1ccc(-c2noc(CCC(=O)N3CCN(c4cccc(C(F)(F)F)c4)CC3)n2)cc1	1
COc1ccc2c(c1)C(=O)[C@H](O)[C@@H](c1ccc(OC)c(Br)c1)O2	23
C/C(C=NNC(=O)Cn1nnc(N)n1)=C\c1ccc(C(C)C)cc1	0
O=C(CN1C(=O)S/C(=C\c2ccc(C(=O)O)cc2)C1=O)Nc1ccccc1	7
COc1ccc2c(c1)C(=O)[C@@H](O)[C@H](c1ccc(OC)c(Br)c1)O2	13
COc1ccc(/C=C2\SC(=O)N(CC(=O)Nc3ccc(F)cc3)C2=O)cc1O	15
COc1ccc(OC)c(-c2cc(C(=O)Nc3c(C)nn(Cc4ccccc4)c3C)no2)c1	15
O=C(N1CCOCC1)n1nnc2ccccc21	103

###

Target: Acyl-protein thioesterase 2 (Homo sapiens) (UniProt O95372)
Sequence (O95372 whole entry, looked up): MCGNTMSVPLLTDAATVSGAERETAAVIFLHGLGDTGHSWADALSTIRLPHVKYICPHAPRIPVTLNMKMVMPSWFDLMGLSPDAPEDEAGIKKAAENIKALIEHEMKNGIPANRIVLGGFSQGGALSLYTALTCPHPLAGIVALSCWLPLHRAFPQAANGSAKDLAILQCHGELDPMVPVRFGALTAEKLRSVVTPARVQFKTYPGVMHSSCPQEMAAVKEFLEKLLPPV
Assay: inhibitor selectivity across mouse and human LYPLA2, LYPLA1 – cell lysate, gel-based ABPP, FP-Rh fluorescence, mouse brain membrane proteome, selectivity assay for LYPLA2 selective inhibitor project, late-stage follow-up (AID 652030)
Conditions: rhLYPLA2, at 10 µM
Activity calls are given as the source filed them.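 Rule for the calls: active = inhibition of 30% or more against both LYPLA2 panels while inhibition against LYPLA1 stays below 30%; inactive = under 30% on either LYPLA2 panel, or 30%+ on LYPLA1.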
Outcomes: active, inactive

QUERY SMILES	SYSTEM NAME	ASSIGNED LABEL
O=C(NC(=S)Nc1sc2c(c1C(=O)O)CCCC2)c1ccccc1	Acyl-protein thioesterase 2 (Homo sapiens) (UniProt O95372)	active
CS(=O)(=O)Nc1ccc(N2CCN(c3ccc(C(F)(F)F)cn3)CC2)nc1	Acyl-protein thioesterase 2 (Homo sapiens) (UniProt O95372)	inactive
CON=Cc1ccc(N2CCN(C(=O)c3cccc(C(F)(F)F)c3)CC2)c([N+](=O)[O-])c1	Acyl-protein thioesterase 2 (Homo sapiens) (UniProt O95372)	inactive
O=C(c1ccc2n[nH]nc2c1)N1CCN(c2ccc(C(F)(F)F)cn2)CC1	Acyl-protein thioesterase 2 (Homo sapiens) (UniProt O95372)	inactive
O=C(NCC1CCN(c2ccc(S(=O)(=O)N3CCOCC3)cc2)CC1)c1ccc(Cl)cc1	Acyl-protein thioesterase 2 (Homo sapiens) (UniProt O95372)	inactive

###

Target: Acyl-protein thioesterase 1 (Mus musculus)
Assay: inhibitor selectivity across mouse and human LYPLA2, LYPLA1 – cell lysate, gel-based ABPP, FP-Rh fluorescence, mouse brain membrane proteome, selectivity assay for LYPLA2 selective inhibitor project, late-stage follow-up (AID 652030)
Conditions: emLYPLA1, at 10 µM
Active and inactive are the calls of the source.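 The calls were made as follows: active = inhibition of 30% or more against both LYPLA2 panels while inhibition against LYPLA1 stays below 30%; inactive = under 30% on either LYPLA2 panel, or 30%+ on LYPLA1.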
Possible outcomes: yes (1) (active), no (0) (inactive)

MOLECULE	SYSTEM NAME	ASSIGNED LABEL
Cc1nc([N+](=O)[O-])cn1CC(=O)Nc1ccc(F)c(Cl)c1	Acyl-protein thioesterase 1 (Mus musculus)	no (0)
O=C(COc1ccc(Cl)cc1Cl)N1CCN(C/C=C/c2ccccc2)CC1	Acyl-protein thioesterase 1 (Mus musculus)	no (0)
Cc1ccc(Oc2ccc3c(c2)C(=O)N(c2ccc(S(=O)(=O)Nc4nccs4)cc2)C3=O)cc1	Acyl-protein thioesterase 1 (Mus musculus)	no (0)
O=C(NC(=S)Nc1sc2c(c1C(=O)O)CCCC2)c1ccccc1	Acyl-protein thioesterase 1 (Mus musculus)	yes (1)
Cc1ccc(N/C=C(\C#N)c2ccc(OCCCF)cc2)cc1	Acyl-protein thioesterase 1 (Mus musculus)	no (0)
COc1ccccc1-n1cc(C(=O)NCC(=O)N2CCN(Cc3ccccc3)CC2)c2ccccc2c1=O	Acyl-protein thioesterase 1 (Mus musculus)	no (0)
O=C(Cc1ccc([N+](=O)[O-])cc1)N1CCN(c2ccc([N+](=O)[O-])cc2)CC1	Acyl-protein thioesterase 1 (Mus musculus)	no (0)
COc1cc(/C=C2\SC(=O)N(CC(=O)Nc3cccc(C)c3)C2=O)ccc1OC(C)C(=O)O (centres undefined)	Acyl-protein thioesterase 1 (Mus musculus)	no (0)
Cc1nc(-c2ccc(S(=O)(=O)N3CCCN(CCc4ccccc4)CC3)s2)cs1	Acyl-protein thioesterase 1 (Mus musculus)	no (0)
COc1ccc(-n2nc(C(=O)NCC(=O)N3CCN(Cc4ccccc4)CC3)c3ccccc3c2=O)c(OC)c1	Acyl-protein thioesterase 1 (Mus musculus)	no (0)
CC(=O)c1ccc(N2CCN(C(=O)C3CCN(S(=O)(=O)c4ccc5c(c4)CC(C)N5C(=O)C4CC4)CC3)CC2)cc1 (centres undefined)	Acyl-protein thioesterase 1 (Mus musculus)	no (0)
CC(=O)N1c2ccc(S(=O)(=O)N3CCC(C(=O)N4CCN(c5ccc(Cl)cc5)CC4)CC3)cc2CC1C (centres undefined)	Acyl-protein thioesterase 1 (Mus musculus)	no (0)
CON=Cc1ccc(N2CCN(C(=O)c3cccc(C(F)(F)F)c3)CC2)c([N+](=O)[O-])c1	Acyl-protein thioesterase 1 (Mus musculus)	no (0)
CCN(CC)S(=O)(=O)c1ccc(N2CCOCC2)c(NC(=O)COc2ccc(C#N)cc2)c1	Acyl-protein thioesterase 1 (Mus musculus)	no (0)
O=C(c1ccc2n[nH]nc2c1)N1CCN(c2ccc(C(F)(F)F)cn2)CC1	Acyl-protein thioesterase 1 (Mus musculus)	yes (1)
COc1cc(C=NNC(=O)C(NC(=O)c2ccccc2)c2n[nH]c(=O)c3ccccc23)ccc1OCC(N)=O (centres undefined)	Acyl-protein thioesterase 1 (Mus musculus)	no (0)
COc1cc(C2Oc3cc(C4Oc5cc(O)cc(O)c5C(=O)C4O)ccc3OC2CO)ccc1O (centres undefined)	Acyl-protein thioesterase 1 (Mus musculus)	no (0)
O=C1Nc2ccc([N+](=O)[O-])cc2OC1CCN1CCN(Cc2ccc3c(c2)OCO3)CC1 (centres undefined)	Acyl-protein thioesterase 1 (Mus musculus)	no (0)
Cc1cccc(NC(=O)CN2C(=O)S/C(=C\c3cccn3-c3cccc(C(=O)O)c3)C2=O)c1	Acyl-protein thioesterase 1 (Mus musculus)	no (0)
